Listing: kon of selected binders
assay_system: T1, recombinant RSV-F protein (RSV A2 strain fusion (F) protein with added His tag) (human respiratory syncytial virus, A2 …, UniProt P03420 26-524)
T1 construct: also called RSV-F recombinant protein
T1 sequence (P03420 26-109, chain 1 of 2): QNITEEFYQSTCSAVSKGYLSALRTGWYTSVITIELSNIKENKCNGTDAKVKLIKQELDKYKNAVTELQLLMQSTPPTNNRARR
T1 sequence (P03420 137-524, chain 2 of 2): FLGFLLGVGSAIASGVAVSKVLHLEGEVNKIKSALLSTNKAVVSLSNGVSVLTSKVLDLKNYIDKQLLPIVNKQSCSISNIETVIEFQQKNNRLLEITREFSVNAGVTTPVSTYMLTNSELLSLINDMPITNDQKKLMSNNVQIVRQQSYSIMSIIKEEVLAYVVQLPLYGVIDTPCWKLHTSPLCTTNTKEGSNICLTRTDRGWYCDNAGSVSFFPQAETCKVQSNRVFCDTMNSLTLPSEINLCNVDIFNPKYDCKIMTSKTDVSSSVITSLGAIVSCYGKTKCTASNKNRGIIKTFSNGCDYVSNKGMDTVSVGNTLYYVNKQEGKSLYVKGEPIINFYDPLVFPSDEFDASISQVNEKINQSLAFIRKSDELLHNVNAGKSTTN
experiment: SPR (Biacore), antibody captured, RSV-F as analyte
Value expressed in M⁻¹ s⁻¹; do not type the unit.

>>> measured_result("R3-39A3QH (antibody, human IgG1, kappa, V domains shown, also called chimeric antibody of R3-39A3) VH: QVKLEESGPELVKPGASVKISCKASGYAFSSSWVNWVQQRPGQGLEWIGRIYPGDGETKYSGKFRGKATLTADKSSNTVYMQVSSLTSVDSAVYFCAREGGLITSSGYYHAMDYWGQGTSVTVSS VL: DIVLTQSPPSLAVSLGQRATISCRASKSVDSYGNGFMHWYQQKPGQPPKLLIFLASNLESGVPARFSGSGSRTDFTLTIDPVEADDAASYYCQQSDEDPTFGGGTKLEIKR")
673000

# context switch: different binder, same kon
Query (binder): R10-10B2QH (antibody, human IgG1, kappa, V domains shown, also called chimeric antibody of R10-10B2) VH: QVQLEESGAELVRSGASVKLSCTASGFNIKDYYIHWVKQRPEQGLEWIGWNDPENGDTEYAPKFQGKATMTADTSSNTVYLQLSSLTSEDSAVYFCKSFDSYLEYWGQGTSVTVSS VL: DIVMTQTTLSLPVNLGDQASISCRSSQSLVHTDGNTFLEWYLQRPGQSPKLLIYKVSIRFSGVPDRFSGSGSGTDFTLKISRVETEDLGVYYCFQGSHVPRTFGGGTKLEIKR ; field requested: kon
753000

// provenance: patent US20250026815A1
